# System Name: T1, ITGA2-His (human, UniProt P17301 30-1132, limits assumed)
# T1 construct: also called ITGA2 protein; not shown: His tag
# T1 sequence (looked up): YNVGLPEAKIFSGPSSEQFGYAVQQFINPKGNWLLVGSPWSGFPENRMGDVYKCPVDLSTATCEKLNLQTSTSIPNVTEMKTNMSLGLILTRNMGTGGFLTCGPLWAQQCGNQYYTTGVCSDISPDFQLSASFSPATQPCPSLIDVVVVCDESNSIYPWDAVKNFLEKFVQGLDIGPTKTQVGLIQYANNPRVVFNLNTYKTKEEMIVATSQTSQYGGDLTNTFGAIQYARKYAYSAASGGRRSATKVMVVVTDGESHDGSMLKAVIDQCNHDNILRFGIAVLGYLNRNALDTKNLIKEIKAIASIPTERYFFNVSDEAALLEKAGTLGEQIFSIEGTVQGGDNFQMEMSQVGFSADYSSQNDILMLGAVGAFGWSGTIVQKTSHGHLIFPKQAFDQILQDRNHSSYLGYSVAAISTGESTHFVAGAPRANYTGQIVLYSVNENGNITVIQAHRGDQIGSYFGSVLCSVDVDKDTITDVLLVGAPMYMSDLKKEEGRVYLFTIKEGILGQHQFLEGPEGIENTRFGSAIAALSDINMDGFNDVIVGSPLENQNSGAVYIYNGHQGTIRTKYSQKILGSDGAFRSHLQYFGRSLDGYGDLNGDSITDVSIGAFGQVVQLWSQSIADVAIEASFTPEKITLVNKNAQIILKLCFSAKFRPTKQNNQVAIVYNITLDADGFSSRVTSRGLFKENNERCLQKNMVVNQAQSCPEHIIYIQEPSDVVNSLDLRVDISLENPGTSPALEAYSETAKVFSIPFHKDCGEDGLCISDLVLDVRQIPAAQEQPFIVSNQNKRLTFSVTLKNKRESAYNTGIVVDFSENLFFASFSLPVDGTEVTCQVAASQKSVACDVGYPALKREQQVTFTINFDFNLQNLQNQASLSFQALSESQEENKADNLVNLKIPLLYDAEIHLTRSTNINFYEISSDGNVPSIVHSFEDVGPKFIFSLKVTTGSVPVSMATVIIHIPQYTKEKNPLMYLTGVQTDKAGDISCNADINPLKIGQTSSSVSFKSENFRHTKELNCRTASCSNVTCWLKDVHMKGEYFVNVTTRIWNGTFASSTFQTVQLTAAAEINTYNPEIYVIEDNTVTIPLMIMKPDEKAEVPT
# Assay Details: ELISA, plate coated with 2 ug/mL ITGA2-His, anti-human IgG-Fc-HRP detection
Parameter Measured: EC50 (nM)

- Binder: "Humanized antibody FS002-A15 (antibody, human IgG1, kappa, V domains shown, IgG1 heavy chain, kappa light chain) VH: RLQLQESGPGLVKPSQTLSLTCTVSGGSISSGGYYWSWIRQHPGKGLEWIGYIYYSGSTYYNPSLKSRVTISVDTSKNQFSLKLSSVTAADTAVYYCARATIYGYFDYWGQGTLVTVSS VL: EIVLTQSPATLPLSPGERATLSCRASQSVGFYLAWYQQKPGQPPRLLFYDASKRATGIPARFSASGSGTDFTLTISGLEPEDFAVYYCQHRISWPLTFGQGTKVEVKR"
  Parameter Measured: "EC50"
  Reading: 0.028
- Binder: "Humanized antibody FS002-B27 (antibody, human IgG1, kappa, V domains shown, IgG1 heavy chain, kappa light chain) VH: QVQLVQSGAEVKKPGSSVKVSCKASGGTFSSYAISWVRQAPGQGLEWMGRIIPILGIANYAQKFQGRVTITADKSTSTAYMELSSLRSEDTAVYYCARAEGSSWYYFDYWGQGTLVTVSS VL: NIQLTQSPSSVSASVGDRVTITCRASQGFSRWLAWYQQKPGKAPKLLIYGASSLQSGVPSRFSGSGSGTDFTLTISSLQPEDFATYYCQQANSFPLTFGGGTKLEIKR"
  Parameter Measured: "EC50"
  Reading: 0.571
- Binder: "Humanized antibody FS002-C9 (antibody, human IgG1, kappa, V domains shown, IgG1 heavy chain, kappa light chain) VH: QVQLLESGPGLVKPSQTVSLTCTVSGVSISRGVYSWSWIRQHPGKGLEWIGFIDYNGRTDYNPSLKSRVTISQDTSKNDFSLKLTSVTAADTAIYYCARGLHAFDIWGQGTMVTVSS VL: NIQMTQSPPSLSASVGDRVAITCRASQDISNSLAWYQQKSGQPPKLLLYDVSKLERGVPSRFSGSGSRTDYTLTISSLQPEDFATYYCQQYSSDPTFGQGSKLEFKR"
  Parameter Measured: "EC50"
  Reading: 12.1
